- tested_on: recombinant cynomolgus monkey CD3ε/δ heterodimer (cynomolgus monkey) (UniProt Q95LI5)
- Sequence (Q95LI5 22-117, stated change not applied, chain 1 of 2): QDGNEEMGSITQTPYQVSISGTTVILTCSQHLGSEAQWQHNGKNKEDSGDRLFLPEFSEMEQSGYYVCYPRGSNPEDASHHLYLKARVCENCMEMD
- Sequence (Q95LI8 22-105, stated change not applied, chain 2 of 2, further chain): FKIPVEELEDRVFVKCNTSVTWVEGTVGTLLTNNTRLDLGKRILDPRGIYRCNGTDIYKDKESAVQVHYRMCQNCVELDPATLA
- experiment_description: ELISA, coated CD3ε/δ
Strictly below 0.1 in Absorbance (450 nm): class 1. Otherwise: class 0.

{"binder": "A13 (antibody, human IgG1, lambda, L234A L235A, V domains shown) VH: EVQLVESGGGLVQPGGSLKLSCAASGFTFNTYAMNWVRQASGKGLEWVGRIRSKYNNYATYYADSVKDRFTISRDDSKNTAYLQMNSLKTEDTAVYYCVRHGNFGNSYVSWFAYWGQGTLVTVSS VL: QAVVTQEPSLTVSPGGTVTLTCRSSTGAVTTSNYANWVQQKPGQAPRGLIYGTNKRAPWTPARFSGSLLGGKAALTLSGAQPEDEAEYYCALWYSNLWVFGGGTKLTVLG", "assigned_category": "class 0"}
{"binder": "A02 (antibody, human IgG1, lambda, L234A L235A, V domains shown) VH: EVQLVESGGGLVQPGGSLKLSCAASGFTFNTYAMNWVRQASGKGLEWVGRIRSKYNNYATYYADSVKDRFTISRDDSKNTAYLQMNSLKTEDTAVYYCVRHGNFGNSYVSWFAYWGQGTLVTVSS VL: QAVVTQEPSLTVSPGGTVTLTCRSSTGAVTTSNYANWFQQKPGQAPRTLIYGTNKRAPWTPARFSGSLLGDKAALTLSGAQPEDEAEYYCALWYSNLWVFGGGTKLTVLG", "assigned_category": "class 1"}
{"binder": "A04 (antibody, human IgG1, lambda, L234A L235A, V domains shown) VH: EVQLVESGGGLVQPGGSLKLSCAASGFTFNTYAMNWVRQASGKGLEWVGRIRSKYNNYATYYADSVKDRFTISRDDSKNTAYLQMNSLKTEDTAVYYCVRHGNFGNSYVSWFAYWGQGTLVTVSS VL: QAVVTQEPSLTVSPGGTVTLTCRSSTGAVTTSNYANWFQQKPGQAPRTLIGGTNKRAPWTPARFSGSLLGDKAALTLSGAQPEDEAEYYCALWYSNLWVFGGGTKLTVLG", "assigned_category": "class 1"}
{"binder": "C04 (antibody, human IgG1, lambda, L234A L235A, V domains shown) VH: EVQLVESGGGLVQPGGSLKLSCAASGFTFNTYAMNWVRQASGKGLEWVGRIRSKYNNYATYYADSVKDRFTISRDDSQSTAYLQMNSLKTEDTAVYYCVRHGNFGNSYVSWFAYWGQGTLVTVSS VL: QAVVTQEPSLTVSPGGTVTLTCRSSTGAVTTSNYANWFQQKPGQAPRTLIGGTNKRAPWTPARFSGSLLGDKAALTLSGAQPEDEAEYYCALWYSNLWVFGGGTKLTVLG", "assigned_category": "class 1"}
{"binder": "C02 (antibody, human IgG1, lambda, L234A L235A, V domains shown) VH: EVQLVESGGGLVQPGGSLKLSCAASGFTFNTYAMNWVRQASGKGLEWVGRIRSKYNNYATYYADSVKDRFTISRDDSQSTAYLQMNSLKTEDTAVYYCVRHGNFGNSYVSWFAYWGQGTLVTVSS VL: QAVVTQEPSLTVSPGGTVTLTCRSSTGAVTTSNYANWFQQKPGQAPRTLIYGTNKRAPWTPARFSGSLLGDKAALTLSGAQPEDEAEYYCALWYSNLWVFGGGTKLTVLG", "assigned_category": "class 1"}
{"binder": "F09 (antibody, human IgG1, lambda, L234A L235A, V domains shown) VH: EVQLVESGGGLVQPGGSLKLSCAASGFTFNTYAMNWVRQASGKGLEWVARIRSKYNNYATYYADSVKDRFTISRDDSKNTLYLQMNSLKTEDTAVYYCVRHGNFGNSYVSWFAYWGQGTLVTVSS VL: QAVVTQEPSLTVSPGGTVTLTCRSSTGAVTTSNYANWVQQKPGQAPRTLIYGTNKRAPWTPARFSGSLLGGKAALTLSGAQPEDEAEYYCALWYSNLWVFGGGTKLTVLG", "assigned_category": "class 1"}
{"binder": "C16 (antibody, human IgG1, lambda, L234A L235A, V domains shown) VH: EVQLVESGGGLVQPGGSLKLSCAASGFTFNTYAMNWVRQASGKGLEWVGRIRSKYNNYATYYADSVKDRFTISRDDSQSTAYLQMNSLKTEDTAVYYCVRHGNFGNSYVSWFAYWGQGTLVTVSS VL: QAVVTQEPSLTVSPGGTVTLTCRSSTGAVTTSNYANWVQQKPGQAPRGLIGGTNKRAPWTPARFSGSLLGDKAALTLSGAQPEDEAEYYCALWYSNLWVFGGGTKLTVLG", "assigned_category": "class 0"}
{"binder": "C13 (antibody, human IgG1, lambda, L234A L235A, V domains shown) VH: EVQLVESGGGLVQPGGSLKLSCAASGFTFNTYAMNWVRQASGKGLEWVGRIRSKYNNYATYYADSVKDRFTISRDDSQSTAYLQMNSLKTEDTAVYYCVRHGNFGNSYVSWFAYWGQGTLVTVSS VL: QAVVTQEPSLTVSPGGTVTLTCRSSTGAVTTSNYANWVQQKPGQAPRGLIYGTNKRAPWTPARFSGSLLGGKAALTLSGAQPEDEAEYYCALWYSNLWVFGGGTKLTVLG", "assigned_category": "class 0"}
{"binder": "G01 (antibody, human IgG1, lambda, L234A L235A, V domains shown) VH: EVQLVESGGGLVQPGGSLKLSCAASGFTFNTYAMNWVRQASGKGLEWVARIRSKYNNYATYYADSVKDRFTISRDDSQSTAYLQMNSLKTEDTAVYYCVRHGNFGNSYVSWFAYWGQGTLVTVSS VL: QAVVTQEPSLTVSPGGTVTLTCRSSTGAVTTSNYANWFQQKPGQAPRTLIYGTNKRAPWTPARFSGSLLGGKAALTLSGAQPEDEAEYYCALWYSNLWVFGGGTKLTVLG", "assigned_category": "class 1"}
